System: CEM cells HIV-1 protection, formazan growth assay
Assay: NCI AIDS Antiviral Assay
measured-endpoint: EC50

Fill in the recorded EC50 for this compound, with CEM cells HIV-1 protection, formazan growth assay as test system: COC(=O)C(Cc1c(C2Nc3ccccc3C2CC(NC(=O)CNC(C)=O)C(=O)OC)[nH]c2ccccc12)NC(=O)CNC(C)=O (stereo unspecified) > 200 µM

Fill in the recorded EC50 for this compound, with CEM cells HIV-1 protection, formazan growth assay as test system: COC(=O)C1(CCSc2ccccc2)CCCC1=O (stereo unspecified) > 13.5 µM

Fill in the recorded EC50 for this compound, with CEM cells HIV-1 protection, formazan growth assay as test system: Cc1c(Cc2ccccc2)n(C(C)OCCN(OC(=O)Oc2ccccc2)C(=O)Oc2ccccc2)c(=O)[nH]c1=O (stereo unspecified) > 200 µM

Fill in the recorded EC50 for this compound, with CEM cells HIV-1 protection, formazan growth assay as test system: O=C(NN1C(=O)C(Cl)C1c1cccc(Cl)c1)c1ccccc1O (stereo unspecified) > 74.1 µM

Fill in the recorded EC50 for this compound, with CEM cells HIV-1 protection, formazan growth assay as test system: Cc1c(N=Nc2ccc(Cl)cc2)c(C)n(C2OC(CO)C(O)C(O)C2O)c(=S)c1C#N (stereo unspecified) > 200 µM

Fill in the recorded EC50 for this compound, with CEM cells HIV-1 protection, formazan growth assay as test system: `CCOC(=O)c1nc(SC)n(C)c1C(=O)OCC` > 200 µM

Fill in the recorded EC50 for this compound, with CEM cells HIV-1 protection, formazan growth assay as test system: `CC(C)(C)SSCCN` > 200 µM

Fill in the recorded EC50 for this compound, with CEM cells HIV-1 protection, formazan growth assay as test system: CCOc1ccc(C2Oc3c(cccc3OC)C=C2[N+](=O)[O-])cc1OCC (stereo unspecified) > 200 µM

Fill in the recorded EC50 for this compound, with CEM cells HIV-1 protection, formazan growth assay as test system: `O=C(/C=C/c1ccc(Cl)c(Cl)c1)c1ccc2ccccc2c1` > 11.5 µM

Fill in the recorded EC50 for this compound, with CEM cells HIV-1 protection, formazan growth assay as test system: `COc1ccc(-c2nc3c(=O)n(C)c(=O)nc-3n(C)n2)cc1OC` > 20 µM

Fill in the recorded EC50 for this compound, with CEM cells HIV-1 protection, formazan growth assay as test system: `Cn1cnc([N+](=O)[O-])c1S` > 200 µM

* * *

Tested on: CEM cells HIV-1 protection, formazan growth assay
Test: NCI AIDS Antiviral Assay
Task for the reader: assign each of the following molecules its reported EC50.

State the recorded EC50 for this entry: COc1ccc(-c2c(C#N)c(N)n(C3OC(COC(C)=O)C(OC(C)=O)C(OC(C)=O)C3OC(C)=O)c(=S)c2C#N)cc1 (stereo not given) > 200 µM

State the recorded EC50 for this entry: O/N=C1/C(=C/c2ccc(OCc3ccccc3)cc2)CCCC1C(NO)c1ccc(OCc2ccccc2)cc1 (stereo not given) > 7.08 µM

State the recorded EC50 for this entry: CC(C)N(C(=O)C12C3C4C1C1C2C3C41I)C(C)C (stereo not given) > 191 µM

State the recorded EC50 for this entry: CCOC(=O)C(NC(=O)c1ccccc1)[CH](C)[Sn]([c]1ccccc1)([c]1ccccc1)[c]1ccccc1 (stereo not given) > 200 µM

State the recorded EC50 for this entry: CCOP(=O)(OCC)C1CC(n2cc(C)c(=O)[nH]c2=O)OC1CO (stereo not given) > 200 µM

* * *

System: CEM cells HIV-1 protection, formazan growth assay
Test: NCI AIDS Antiviral Assay
Task for the reader: assign each of the following molecules its reported EC50.

State the recorded EC50 for this entry: `SCc1ccc(-c2ccc(CS)cc2)cc1` > 4.27 µM

State the recorded EC50 for this entry: `NC(=O)ON=C1CCN(Cc2ccccc2)CC1` > 200 µM

State the recorded EC50 for this entry: `c1ccc2c(c1)Sc1nccc3ccnc-2c13` > 200 µM

State the recorded EC50 for this entry: `O=CNNC(=O)Nc1cccc2ccccc12` > 200 µM

State the recorded EC50 for this entry: COc1cc2c(c(OC)c1OC)CCC1C(=O)NN=C21 (stereo not drawn) > 912 µM

State the recorded EC50 for this entry: `c1ccc(-c2cc(-c3ccccc3)nc(-c3ccncc3)c2)cc1` > 200 µM

State the recorded EC50 for this entry: COC(=O)[C@H]1C2c3ccccc3-c3ccccc3C2(OC(C)=O)[C@@]1(Cl)C(=O)OC (stereo partly drawn) > 43.7 µM

State the recorded EC50 for this entry: Nc1nc2c(c(=O)[nH]1)C(c1ccc(Cl)cc1)C=C(c1ccccc1)N2 (stereo not drawn) > 200 µM

State the recorded EC50 for this entry: `CC(C)[C@](O)(C(=O)OCC1=CCN2CC[C@@H](O)[C@@H]12)[C@H](C)O` > 417 µM

State the recorded EC50 for this entry: `O=C(CCN1CCC(CCO)CC1)Nc1ccc2c(c1)C(=O)c1ccc(NC(=O)CCN3CCC(CCO)CC3)cc1C2=O` > 200 µM

State the recorded EC50 for this entry: O=C(O)c1c2c(cc3c1CC(Cc1ccccc1)C3=O)CCC2 (stereo not drawn) > 200 µM

State the recorded EC50 for this entry: `O=[N+]([O-])c1ccc2cnn(CSP(=S)(c3ccccc3)c3ccccc3)c2c1` > 200 µM

State the recorded EC50 for this entry: `Cc1cc(O)c(/C=N/C(=S)Nc2ccc(S(N)(=O)=O)cc2)c(=O)o1` > 200 µM

State the recorded EC50 for this entry: COc1ccc2[nH]c(C(=O)N3CC(CCl)c4ccc(N)cc43)cc2c1 (stereo not drawn) > 2 µM

State the recorded EC50 for this entry: `Cc1cc([C@H](C#N)c2nc3ccccc3[nH]2)nc(Cl)n1` > 200 µM

State the recorded EC50 for this entry: `CC(=O)c1ccc(NC(=O)/C(CC(=O)/C=C/c2ccccc2)=N/NC(N)=S)cc1` > 63.1 µM

State the recorded EC50 for this entry: `CC1=CCC[C@H]2[C@](C)(CC3=CC(=O)C(SCC(C)C)=CC3=O)[C@@H](C)CC[C@]12C` > 200 µM

State the recorded EC50 for this entry: `CS(=O)(=O)CCOC(=O)ON1C(=O)CCC1=O` > 200 µM

State the recorded EC50 for this entry: `C/C(=N\NC(N)=O)c1ccc(Cl)cc1` > 123 µM

State the recorded EC50 for this entry: `O=P(O)(O)C1(P(=O)(O)O)CC1` > 251 µM

State the recorded EC50 for this entry: `Cc1ccc(C)c(COCCOCn2ccc(N)nc2=O)c1` > 200 µM

State the recorded EC50 for this entry: `COc1cc(/C=C/C(=O)CC(=O)/C=C/c2ccc(O)cc2)ccc1O` > 200 µM

State the recorded EC50 for this entry: `O=C1CS(=O)(=O)CN1N1CS(=O)(=O)CC1=O` > 200 µM

* * *

System: CEM cells HIV-1 protection, formazan growth assay
Assay: NCI AIDS Antiviral Assay;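 active = compounds giving half or more protection of infected cells from virus-caused growth loss, again on retest; inactive = the rest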
Valid outcomes are listed here; reply with one: Y (active), N (inactive)

Please share the test call associated with Cc1cn(C2C/C(=C\C#N)C(CO[Si](C)(C)C(C)(C)C)O2)c(=O)[nH]c1=O (stereo unspecified) . N

Please share the test call associated with N#CCCN(C1=NN(C(=O)CC(=O)Nc2cccc(Cl)c2)C(c2ccccc2)C1)c1ccccc1Cl (stereo unspecified) . N

Please share the test call associated with O=C1CCC2(c3ccccc3)Nc3ncccc3N12 (stereo unspecified) . N

Please share the test call associated with `c1ccc2sc(SSSc3nc4ccccc4s3)nc2c1` . Y

Please share the test call associated with `COc1ccc(N=C/C=C/C(=C/COC(C)=O)OC(C)=O)cc1` . N

Please share the test call associated with `CC(=O)OCN(C)c1nc(N(C)COC(C)=O)nc(N(C)COC(C)=O)n1` . N

* * *

Tested on: CEM cells HIV-1 protection, formazan growth assay
Assay: NCI AIDS Antiviral Assay;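 active = compounds giving half or more protection of infected cells from virus-caused growth loss, again on retest; inactive = the rest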
Method: The ability of compounds to protect human CEM cells from HIV-1 infection is measured as a screen for new compounds capable of inhibiting the HIV virus. Five concentrations of drug were tested on uninfected and infected cells and cell growth was measured using a soluble formazan assay. […] Compounds that provided at least 50% protection were retested. Compounds that provided at least 50% protection on retest were listed as moderately active. […]
Valid outcomes are listed here; reply with one: active, inactive

Please share the test call associated with COc1cccc(-c2nc(-c3cnccn3)n(C3OC(CO)C(O)C(O)C3O)n2)c1 (stereo unspecified) . inactive

Please share the test call associated with `c1ccc2c3c([nH]c2c1)C1c2[nH]c4ccccc4c2CCN1CC3` . inactive

Please share the test call associated with `Cc1ccc(-c2n[nH]c(=O)n2N2C(=O)c3ccccc3C2=O)cc1` . inactive

Please share the test call associated with OCc1ccc2[n+](c1)CCC1c3ccccc3NC21 (stereo unspecified) . inactive

Please share the test call associated with `Cc1cccc2c(=O)c3ccccc3oc12` . inactive

Please share the test call associated with `CC(C)=Cc1cc(C(=O)NCCNC(=O)c2cc(C=C(C)C)nc(NC#N)n2)nc(NC#N)n1` . inactive

Please share the test call associated with CCOC(=O)C1=C(OC(OCC)C([Se]c2ccccc2)C(C)C)CCC1 (stereo unspecified) . inactive

Please share the test call associated with N#CC(Nc1ccccc1)c1ccc(C(C#N)Nc2ccccc2)cc1 (stereo unspecified) . inactive

Please share the test call associated with CC(=O)OCC1OC(OCCCOP(=S)(OCCC#N)OCC2OC(n3ccc(N)nc3=O)C(OC(=O)c3ccccc3)C2OC(=O)c2ccccc2)C(OC(C)=O)C(OC(C)=O)C1OC(C)=O (stereo unspecified) . inactive

Please share the test call associated with `CC1=C(C)C1[N+](=O)[O-]` . inactive

Please share the test call associated with `Cc1ccc(S(=O)(=O)N/N=C(/CC(=O)c2c(C)n([O-])c3ccccc3[n+]2=O)C(=O)Nc2ccc(C)c(C)c2)cc1` . inactive

Please share the test call associated with O=C(Cc1ccccc1)N/N=C(\C1=Nc2ccc([N+](=O)[O-])cc2NC1O)C(O)c1ccc([N+](=O)[O-])cc1 (stereo unspecified) . inactive

Please share the test call associated with `COc1ccc(/C=C\c2cc(OC)c(OC)c(OC)c2)cc1OC(=O)CCC(=O)O` . inactive

Please share the test call associated with `COC(=O)/C=C/c1cc(OC)c2c(c1)[C@H](C(=O)OC)[C@@H](c1ccc(O)c(OC)c1)O2` . inactive

Please share the test call associated with `COc1ccc2c(c1)CCCN2S(=O)(=O)c1ccccc1[N+](=O)[O-]` . inactive

Please share the test call associated with O=C1C(Cl)C(c2ccc([N+](=O)[O-])cc2)N1n1cnc2ccccc2c1=O (stereo unspecified) . inactive

Please share the test call associated with `Oc1ccc([Te]CCNCC[Te]c2ccc(O)cc2)cc1` . inactive

Please share the test call associated with `S=C1C=C(c2ccccc2)Sc2ccccc2N1` . inactive

Please share the test call associated with `CCC[CH2][Sn]([CH2]CCC)([O]C(=O)c1cc(F)ccc1F)[O]C(=O)c1cc(F)ccc1F` . inactive

Please share the test call associated with `O=c1[nH]c(=O)ss1` . active

Please share the test call associated with `Cc1ccc2c(c1)C(=C(C#N)C#N)CCCS2(=O)=O` . inactive

// data source = PubChem BioAssay AID179
